# system_under_test: human glucagon receptor (human, UniProt P47871 26-477)
# Sequence (P47871 26-477): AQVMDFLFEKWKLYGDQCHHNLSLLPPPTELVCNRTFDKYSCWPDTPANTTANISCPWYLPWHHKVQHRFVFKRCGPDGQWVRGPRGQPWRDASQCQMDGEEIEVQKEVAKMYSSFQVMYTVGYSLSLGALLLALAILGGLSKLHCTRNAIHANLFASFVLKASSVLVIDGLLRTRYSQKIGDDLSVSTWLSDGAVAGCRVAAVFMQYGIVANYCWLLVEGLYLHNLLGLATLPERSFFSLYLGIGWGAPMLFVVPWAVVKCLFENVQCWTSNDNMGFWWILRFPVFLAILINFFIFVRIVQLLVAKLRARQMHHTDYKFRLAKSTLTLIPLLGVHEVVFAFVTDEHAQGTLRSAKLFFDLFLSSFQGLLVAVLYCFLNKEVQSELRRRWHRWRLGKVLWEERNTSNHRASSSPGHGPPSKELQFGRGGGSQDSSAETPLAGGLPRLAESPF
# assay_explanation: cell-based or functional assay
Recorded GCGR EC50 values for a group of binders are listed next.

Example cases with answers are listed next.
For reference, reported GCGR EC50 for HXQGTFTSDYSKYLDSRRAQDFVQWLMNTKRNRNNIAC (Aib at position 2; methionine sulfoxide at position 27; C6 = Cys(mPEG)260kDa (60 kDa) at position 38; C-terminal amide) [OXM100] stands at > 1000 nM

For reference, reported GCGR EC50 for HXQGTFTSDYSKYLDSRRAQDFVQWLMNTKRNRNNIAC (not fully specified; Aib at position 2; methionine sulfoxide at position 27; C3 = Cys(mPEG)240kDa (40 kDa) at position 38; C-terminal amide) [OXM99] stands at > 1000 nM

More entries:
For reference, reported GCGR EC50 for HXQGTFTSDYSKYLDSRRAQDFVCWLMNTKRNRNNIA (Aib at position 2; C3 = Cys(mPEG)240kDa (40 kDa) at position 24; methionine sulfoxide at position 27; C-terminal amide) [OXM107] stands at > 1000 nM
